PROCEDURE_TEXT: yeast display, Sf9 membrane polyspecificity reagent, FACS + sequencing; frameworks hold sequencing errors
READOUT_NAME: polyreactivity (PSR sort gate)

The examples below pair each entry with its known result.
| SEQ | OBSERVED_MEASUREMENT |
| --- | --- |
| QVQLVESGGGIVQAGGSLRLSCAASGIIFPYYAMGWYRQAPGKVRELVAAISSSGGSTHYADSVKGRFTISRDTAKNTVYLQMHSLKPEDTAVYYCAARDINRYPKAQPTDRSIYYWRQGTQVTVSS | high polyreactivity |
| QVQLVESGGGLVQAGGSLRLSCAASGRIFYRYVMGWYREAPGKERELVAAIRNSGGSTYYADSVKGRFTISRDNAKNTVYLQMNSLKPEDTAVYYCAKRYGTSFYVGSAKIGYDYWGQGTQVTVSS | high polyreactivity |
| QVQLVDSVGGLVQAGGTHRLSCAASGSIFEIYAMGWYRQAPGKERELVASITSSGGSTYYADSVKGRFTISRDYAKNTVYLQMNSLKPEDTAVYYCATDKRYGRTVRMDYWGQGTQVTVSS | low polyreactivity |
| PVQLVESGGGLVQAGGSLRLICAASGSIFYQYTMGWYRQAPGKERELVATISWSDVSTYYADSVKGRFTISRENAQNPVYLQMNSLKPEDTSVYYCAALYSGWDRYYGYDYWGQGTQVTVSS | low polyreactivity |
| QVQLVESGGGLVQAGGSLRLSCAASGFTLQQYTMGWYRQAPGKERELVAAISTSGVRTYYADSVKGRFTISRDNAKNTVYLQMNSLKPEDTAVYYCNAKVRKSRFYYWGQGTQVTVSS | high polyreactivity |
| QVQLVESGGGLVQAGGSLRLSCAATGSTYPRNDRGWYRQAPGKERELVAAISRGGSTNYADSVKGRFTISRDNAKNTVYLQMNSLKPEDTAVYFCAAQIFESAYGMDYWGQGTQVTVSS | low polyreactivity |
| HVQLVESGGGLVQAGGSLRLSCAASGFTFWDYTMGWYRQAPGKERELVAAISSSGGGTYYADSVKGRFTISRDNAKNTVYLQMNSLKPEDTAVDYCNAVRFLDYWYPDTYGDWGQGTQVTLSS | low polyreactivity |
| QVHLVESGGGLVQAGGSLRLSCAASGRTFYSNAMGWYRQPPGKERELVAAINSGGDTYYADSVKGRFTISRDNAKNTVYLQMNSLTPEDTAVYYCADDYYWEMDSWGQGTQVTVSS | low polyreactivity |

## Task Request the reported polyreactivity (PSR sort gate) associated with QVQLVDSGGGLVQAGVSLRLSCAASGSIFRGNAMGWYRQAPVKERELVAAINKSGGSTYYADSVKGRFTISRDNAKNTVYLQMNSLKQEDTAVYYCAAVYKRLQPYGYWGQGTQVTVSS
## Result high polyreactivity

## Task Request the reported polyreactivity (PSR sort gate) associated with QVQLVESGGGLVQAGGSLRLSCASSGRSLSVYAMGRYRQAPGKERDLVADITWRGGSTYYADSVKGRFTISRDNAKNTVYLQMNSLKPEDTAVYYCAAADSTWFDWGNYWYYYWGQGTQVSVSS
## Result low polyreactivity

## Task Request the reported polyreactivity (PSR sort gate) associated with QVQLVESGGGLVQAGGSLRLSCAASGFTFERYSMGWYRQAAGKEMELVASISRRSGRTSYADSVKGRFTISRDNAKNTVYLQMKSLIPEDTAVYYCAVDDAYPDGYDYWGQGTQVTVSS
## Result high polyreactivity

## Task Request the reported polyreactivity (PSR sort gate) associated with QVQLVESGGGLVQAGGSLRLSCAASGFTFYKNTMGWYRQAPGKVRELGAAISSSGSSTYYADSVKGRFTISRDNAKTTVYLQMNSLKPEDTAVYYCAAVSHYPAGYDYWGQGTQVTVSS
## Result high polyreactivity

## Task Request the reported polyreactivity (PSR sort gate) associated with QVQLVESGGGLVQAGGSLRLSCAASGGTFGTNTMGWYRQAPGKERELVAAISRSGGSTYYADSVKGRFTISRDNAKNTVYLQMNCLKPEDTAVYYCNAVPRKYTDEFDYWGQGTQVTVSS
## Result high polyreactivity

## Task Request the reported polyreactivity (PSR sort gate) associated with QVQLVESGGGLVQAGGSLRLSCAASGFIFTRNVMGWYRQAPGKERELVAGITYTSGSTYYADSVKGRFTISRDNAKNTVYLQMNSLKPEDTAVYYCAAEITRHYVFGDDYWGQGTQVTVSS
## Result low polyreactivity

## Task Request the reported polyreactivity (PSR sort gate) associated with QVQLVESGGGLVQAGGSLRLSCAASGSIFYPYAMGWYRQAPGKERELVAAISSSGGSTYYADSVKGRFTISRDNAKNTVYLQMNSLKPEDTAVYYCAADAATGIFDRLNYWGQGTQVTVSS
## Result high polyreactivity

## Task Request the reported polyreactivity (PSR sort gate) associated with QVQLVESGGGLVQAGGSLRLSCAASGFIFYKYAMGWYRQAPGKERELVAAITRRGGSTYYADSVKGRFTISRDNAKNTVYLQMNSLKPEDTAVYYCAKYIYGYKDSPLGDDYWGQGTQVTVSS
## Result high polyreactivity

----------
PROCEDURE_TEXT: yeast display, Sf9 membrane polyspecificity reagent, FACS + sequencing; frameworks hold sequencing errors
READOUT_NAME: polyreactivity (PSR sort gate)

| SEQ | READOUT_NAME | OBSERVED_MEASUREMENT |
| --- | --- | --- |
| QDHHVDSGGGLVQAGGILRLSCAASGSIIDYYPMGWYRQPPGKERELVARIRRRSSSTFYADSVKGRFTISRDNEKNTDYLQMNSLKPEDTAVYYCAADSYAWSTGGIFDYWGQGTQVTVSS | polyreactivity (PSR sort gate) | high polyreactivity |
| QVQLVESGGGLVQAGGSLRLSCAASGRTFGTYAMGWYRQAPGKQRELVAAISSGGSTYADSVKGRFTISRDNAKNTVYLQMNSLKPEDTAVYYCNADYRARNYHYYPRRFKYYYWGQGTQVTVSS | polyreactivity (PSR sort gate) | high polyreactivity |

----------
PROCEDURE_TEXT: yeast display, Sf9 membrane polyspecificity reagent, FACS + sequencing; frameworks hold sequencing errors
READOUT_NAME: polyreactivity (PSR sort gate)

The examples below pair each entry with its known result.
| SEQ | polyreactivity (PSR sort gate) |
| --- | --- |
| QVQLVESGGGLVQAGGSLLLSCAASGSTFIWNAMGWYRQAHGKERELVAAISSGGSTYYADSVKGRFTISRDNAKNTVYLQMNSLKPEDTAVYYCAAEYVYNVWEQRYAVYSTDDYWGQGTQVTVSS | low polyreactivity |
| QVQLVESGGGLVQAGGSLRLSCAASGRTFSRYAMGWYRQAPGKEREFVAAITWSSGGTYYADSVKGRFTISRDNAKNTVYLQMNSLKPEDTAVYYCNYLRSRYYQDYNYWGQGTQVTVSS | high polyreactivity |
| QVQLVESGGGLVQAGGSLRLSCAPSGRTFRYYTMGWYRQAPGKERELVAAISSAGRTYYADSVKGRFTISRDNAKNTVYLQMNSLKPEDTAVYYCAAYGGDKIRMDYWGQGTQVTVSS | high polyreactivity |
| QVQLVESCGGLVQAGGSLRLSCAASGYIFVNYAMGWYRQAPGKQRELVARITGSGGSTDYADSVKGRFTISRDNAKNTVYLQMNSLKPEDTAVYYCNTKYVRYLRYYTYKYWGHGTQVTVSS | low polyreactivity |
| QVQLVESGGGLVQAGGSLRVSCAASGSTFTWYAMGWYRQAPGKVRELVAAIRWSGGNTYYADSVKGRFTISRDNAKNTVFLQMNSLKPEDTAVYYCNAYQYFPRYDYWGQGTQVTVSS | high polyreactivity |

## Task Request the reported polyreactivity (PSR sort gate) associated with QVQLVESGGGLVQAGGSLRLSCAASGFTFYRYAMGWYRKAPGKERELVAAITRSGSRTYYADSVKGRFTISRDNAKNTVYLQMNSLKPEDTAVYYCKTDGGDHPTARYGYWGQGTQVTVSS
## Result high polyreactivity

## Task Request the reported polyreactivity (PSR sort gate) associated with QVQLVESGGGLVQAGGSLRLSCAPSGITLVRYAMGWYRQAPGKERELVAAISSSGGSTYYADSVKGRFTISRDNAMNPVYLQMNSLKPEDTAVYYCAKRLYYGDPPTYDYWGQGTQVTVSS
## Result high polyreactivity

## Task Request the reported polyreactivity (PSR sort gate) associated with QVQLVESGGGLVQAGGSLRLSCAASGSTFRLYAMGWYRQAPGKERELVAAIRSGGNTNYADSVKGRFTISRDNAKNTVYLQMNSLKPEDTAVYYCAATYGTGRRSKYGYWGQGTQVTVSS
## Result high polyreactivity

----------
PROCEDURE_TEXT: yeast display, Sf9 membrane polyspecificity reagent, FACS + sequencing; frameworks hold sequencing errors
READOUT_NAME: polyreactivity (PSR sort gate)

| SEQ | polyreactivity (PSR sort gate) |
| --- | --- |
| QVQLVESGGGLVQAGGSLRISCAASGSIFVHYSMGWYRQAPGKEREFVAAISRGGGTTYYADSVKGRFTISRDNAKNTVYLQMNSLKPEDTAVYYCSARPSTDEGHRQSGLDYWGQGTQVTVSS | high polyreactivity |
| QVQLVESAGGLDQAGGSLRLSCAASGSIFYIYAMGWYRQAPGKERELVATISGSGGSTHYADSVKGRFTISRDNAKNSVYLQKNSLKPEDTAVYYCAADVLPYGYYWGQGPQVTVSS | low polyreactivity |
| QVQLVESGGGLVQAGGSLRLSCAASGFTFGSNAMGWYRQAPGKERELVAAITWDGGSTYYADSVKGRFTISRDNAKNTVYLQMNSLKPEDTAVYYCARYLYATYGKYNYWGQGTQVTVSS | high polyreactivity |
| QVQLVESGGGLVQAGGSLRLTCAASGRIFLINPMGWYRQAPGKDRELVAGIRGRTGSTNYADSVKGRFTISRDNAKNTVYLQMNRLKPEDTAVYYCAARFSVQDGGPYAYDYWGQGTQVTVSS | low polyreactivity |
| QVQLVESGGGLVQAGGSLSLSCAASGSIFPHYAMGWYRQAPGKERELVAAISRGGSTNYADSVKGRFTISRDNAKNTVYLQMISLKPEDTAVYYCNARVYTKDYKRYDYWGQGTQVTVSS | high polyreactivity |

## Task Request the reported polyreactivity (PSR sort gate) associated with QVQHVESGVGLVQAGGSLRLSCAASGITFLDTVLGWYRHAPAKEWELVADINSIGTSTSYADSVKGRFTISRDNAKNTVYLQMISLKPEDTADYYCAATSYARLAYYYGGQGTQVTVSS
## Result low polyreactivity

## Task Request the reported polyreactivity (PSR sort gate) associated with QVQLVESGGGLVQAGGSLRLSCAASGSIIVGYAMGWYRQAPGTERELVAAISWSGGRTYYADSVKGRFTISRDNAKNSVYLQMNSLKPEDTAVYYCATVTKGSLRYNYNYWGQGTQVTVSS
## Result high polyreactivity
